A compilation of IC50 values for MAGL (Homo sapiens) from the published literature.
Could you please classify the records by IC50 using these ranges: lo: < 10 nM; mid: ≥ 10 nM and < 100 nM; hi: ≥ 100 nM

q: Using the reported IC50, which band applies to `O=C1N[C@H](COC(=O)N2CC(C#Cc3ccccc3C(F)F)C2)CO1` ?
a: mid

q: Also need `O=C1N[C@H](CCC(=O)N2CC3(CC(Oc4ccc(F)cc4Cl)C3)C2)CO1` , thanks.
a: lo

q: Then `C[C@@H]1[C@@H](Oc2cc(C(F)(F)F)ccc2Br)CCN1C(=O)N1CC[C@@H]2OCC(=O)N[C@@H]2C1` ?
a: hi

q: Could you do the same for `COc1cc(OC)c(Cl)c(C(=O)N2CCN3C[C@H](c4ccc(F)c(Cl)c4)OC[C@@H]3C2)c1` , please?
a: hi

q: Note, next up: `O=C(CCc1cccc(=O)[nH]1)N1CC(OCc2ccc(C(F)(F)F)cc2F)C1`
a: hi

q: Similarly, CC(Oc1ccc(C(F)(F)F)cc1Cl)C1CN(C(=O)N2CC[C@@H]3OCC(=O)N[C@@H]3C2)C1 (single isomer, unassigned) ?
a: mid

q: Another: `O=C1N[C@H](CCC(=O)N2CC(OCc3ccc(S(F)(F)(F)(F)F)cc3F)C2)CO1`
a: lo

q: Okay, and `CC1(c2ccc(Br)cc2)CN(C(=O)N2CC[C@@H]3OCC(=O)N[C@@H]3C2)C1` ?
a: hi

q: Could you do the same for `O=C(c1ccc2c(ccn2-c2ccc(F)c(F)c2)c1)N1CC(N2CCN(C(=O)c3cscn3)CC2)C1` , please?
a: lo

q: Next: `O=C(c1ccc(Oc2ccc(Cl)cn2)cc1)N1CC(N2CCN(C(=O)c3nccs3)CC2)C1`
a: hi

q: Same again, this time with `O=C1CO[C@H]2CCN(C(=O)N3CC(c4ccc(C(F)(F)F)cc4)C3)C[C@H]2N1`
a: mid

q: Another molecule: `COc1cc(C(=O)N2CCN(c3nc4nc(Cl)ccc4o3)CC2)ccc1-c1cnn(CC(C)(C)C)n1`
a: lo

q: And for `Cc1ccc2oc(N3CCN(C(=O)c4cnc(-c5cnn(CC(C)(C)C)c5)c(C)c4)CC3)nc2n1` ?
a: mid

q: Next molecule up: CC(c1ccccc1)n1ncc2cc(C(=O)N3CC(N4CCN(C(=O)c5nccs5)CC4)C3)ccc21 (stereo not drawn)
a: mid

q: Let us now turn to `Cc1cc(C(F)(F)F)ccc1COC1CN(C(=O)N2CC[C@@H]3OCC(=O)N[C@@H]3C2)C1`
a: lo

----------
Field: log10 IC50. System: MAGL (Homo sapiens, UniProt Q99685). Provenance: assorted publications.
Sequence (Q99685 whole entry, species assumed): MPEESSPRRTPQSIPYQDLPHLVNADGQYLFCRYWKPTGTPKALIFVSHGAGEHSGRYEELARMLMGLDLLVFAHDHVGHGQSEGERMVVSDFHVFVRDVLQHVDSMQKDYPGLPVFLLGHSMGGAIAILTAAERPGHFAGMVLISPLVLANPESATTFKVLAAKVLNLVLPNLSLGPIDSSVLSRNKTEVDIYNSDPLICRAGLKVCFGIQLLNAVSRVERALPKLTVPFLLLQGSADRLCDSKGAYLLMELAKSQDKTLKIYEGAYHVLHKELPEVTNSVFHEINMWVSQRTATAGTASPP
Record value = log10 of IC50 given in nM.

q: I'd like to know its log10 IC50. The molecule in question is `O=C1N[C@H](COC(=O)N2CC3(CC(Cc4ccc(F)cc4F)C3)C2)CO1`
a: 0.30

q: Please do the same for `Cc1cccnc1-c1cccc(C(=O)N2CCN3C[C@@H](c4ccc(F)c(Cl)c4)OC[C@@H]3C2)c1Cl` as well.
a: 2.44

q: Then what about the molecule `Cc1cc(C(=O)N2CC(N3CCN(C(=O)c4nccs4)CC3)C2)ccc1Br` ?
a: 2.34

q: Now the molecule `O=C1CO[C@H]2CCN(C(=O)N3CC(c4ccc(-c5ccccc5)c(Cl)c4)C3)C[C@H]2N1`
a: -0.40

q: Try the molecule `O=C(c1cscn1)N1CCC(C2CN(C(=O)c3ccc(-c4ccccc4)cc3F)C2)CC1`
a: 2.06

q: Ok, now O=C1CO[C@H]2CCN(C(=O)N3CC(c4ccc(N5CCCC5C(F)(F)F)cc4)C3)C[C@H]2N1 (some centres unmarked)
a: -0.52

q: Then this molecule: `Cc1ccc2oc(N3CCN(C(=O)c4cc(F)c(-c5cnn(CC(C)(C)C)n5)c(F)c4)CC3)nc2n1`
a: 1.00

q: Note, next up: `CC1(O)CN(c2ccc(C3CN(C(=O)N4CC[C@@H]5OCC(=O)N[C@@H]5C4)C3)cc2)C1`
a: 2.44

----------
Before we begin, note that these IC50 values for MAGL (Homo sapiens, UniProt Q99685) originate from several publications.
Value expressed in nM; do not type the unit.

q: What reported IC50 corresponds to CC(C)(C)OC(=O)NCCOc1cccc(C(c2ccccc2)C2CCN(C(=O)N3CC[C@@H]4OCC(=O)N[C@@H]4C3)CC2)c1 (stereo partly shown) on MAGL (Homo sapiens, UniProt Q99685)?
a: 1

q: Now try O=C1CC[C@H]2CCN(C(=O)N3CCC(C(c4ccccc4)c4ccccc4)CC3)C[C@H]2N1 (racemic) .
a: 0.06

q: Repeat for the following compound: `O=C(c1ccc(OCc2cncc(Cl)c2)cc1)N1CC(N2CCN(C(=O)C(F)(F)F)CC2)C1`
a: 648

q: Now the compound `COc1cccc2c(C)c(C(=O)N3CCN(C4CN(C(=O)c5nccs5)C4)CC3)[nH]c12`
a: 6450

----------
pIC50: −log10 of the molar value.
Study the reported pIC50 values for MAGL (Homo sapiens, UniProt Q99685) given below; they originate from different publications.
Kind request: treat 8 as inclusive, so pIC50 at 8 or higher is yes, anything lower is no.

q: Determine whether measured pIC50 meets or exceeds 8 for `O=C(c1cnc2cc(Cl)ccc2c1)N1CC(N2CCN(C(=O)c3nccs3)CC2)C1`
a: no

q: Continue with `NC(=O)c1ccccc1-c1ccc(C2CN(C(=O)N3CC[C@@H]4OCC(=O)N[C@@H]4C3)C2)cc1`
a: yes

q: And for `Cc1ccc(/C(F)=C/C2CN(C(=O)N3CC[C@@H]4OCC(=O)N[C@@H]4C3)C2)cc1F` ?
a: no

q: Same question, `Cc1nc2cc(C(=O)N3CC(C4CCN(C(=O)c5nccs5)CC4)C3)ccc2n1CCC(F)(F)F` this time
a: no

q: Now the same for `COc1cc(C2CN(C(=O)N3CC[C@@H]4OCC(=O)N[C@@H]4C3)C2)ccc1C(C)(C)C`
a: yes

----------
pIC50 for MAGL (Homo sapiens, UniProt Q99685), merged from several publications.
Give only the number. pIC50 is defined as minus log10 of concentration in molar units.

q: Which value of pIC50 has been reported for `O=C1CO[C@H]2CCN(C(=O)N3CC(c4ccc(C5CCOCC5)cc4)C3)C[C@H]2N1` in the records?
a: 8.22

q: Please give the result for `N#Cc1ccccc1-c1ccc(C2CN(C(=O)N3CC[C@@H]4OCC(=O)N[C@@H]4C3)C2)cc1` too.
a: 9.30

q: Then this compound: `O=C(c1cccc(-c2c[nH]nc2F)c1Cl)N1CCN2C[C@@](O)(c3ccc(Cl)cc3)CC[C@@H]2C1`
a: 8.71

q: # iterate: `O=C(c1ccc2c(-c3ccc(C(F)(F)F)cc3)c[nH]c2c1)N1CC(N[C@H]2CCN(C(=O)c3nccs3)C2)C1`
a: 7.65

q: // repeat for N#CC(c1ccc(F)cc1)C1CCN(C(=O)N2CC[C@@H]3OCC(=O)N[C@@H]3C2)CC1 (stereo partly drawn) and report
a: 6.44

q: # iterate: O=C1CO[C@H]2CCN(C(=O)N3CCC(Oc4cc(C(F)(F)F)ccc4F)C3)C[C@H]2N1 (stereo partly drawn)
a: 6.75

q: Please give the result for `O=C(c1ccc(Cl)nc1)c1c[nH]c2cc(C(=O)N3CC(N4CCN(C(=O)c5nccs5)CC4)C3)ccc12` too.
a: 6.79

q: Another compound to check: O=C1CO[C@H]2CCN(C(=O)N3CCC(C(COCC(F)(F)F)c4ccc(F)cc4)CC3)C[C@H]2N1 (stereo partly drawn)
a: 7.68

q: Okay, and `O=C(c1cscn1)N1CCN(C2CN(C(=O)c3cccc4nc(-c5ccccc5)oc34)C2)CC1` ?
a: 6.41

q: Item: `COc1cccc(C(=O)N2CCN3C[C@@H](c4cc(C(F)(F)F)c(F)cn4)OC[C@@H]3C2)c1Cl`
a: 6.88

q: Request: `O=C(c1cscn1)N1CCN(C2CN(C(=O)c3cc(-c4ccccc4)ccc3F)C2)CC1`
a: 5.70

q: Further, for `O=C(c1ccc(Oc2ccccc2Cl)nc1)N1CC(N2CCN(C(=O)c3cscn3)CC2)C1` ?
a: 5.67

q: Now consider `COc1cccc(C(=O)N2CCN3C[C@H](c4cc(Cl)ccn4)OC[C@@H]3C2)c1Cl` .
a: 5.64

q: Another compound: `O=C(c1cscn1)N1CCN(C2CN(C(=O)c3sc4cc(C(F)(F)F)ccc4c3F)C2)CC1`
a: 8.15

----------
Compiled notes: published pIC50 values involving MAGL (Homo sapiens).
When answering, recall that pIC50 equals minus log10 of the concentration in mol/L, and write that number alone.

q: Data request, read-out pIC50, for `COc1cccc2c(C)c(C(=O)N3CC(N4CCN(C(=O)c5ccccc5)CC4)C3)[nH]c12`
a: 5.09

q: Next record, please: `Cc1ccnc(-n2ccc3cc(C(=O)N4CC(N5CCN(C(=O)c6nccs6)CC5)C4)ccc32)c1`
a: 7.68

q: Field entry: `O=C1CO[C@H]2CCN(C(=O)N3CC(c4ccc(N5CC6(C5)CC(F)(F)C6)cc4)C3)C[C@H]2N1`
a: 9.30

q: `O=C(c1ccc2c(ccn2-c2ccc(F)cc2F)c1)N1CC(N2CCN(C(=O)c3ccc[nH]3)CC2)C1` ?
a: 8.22

q: Please give the result for O=C1N[C@H](COC(=O)N2CC(c3ccc(N4CCC(C(F)(F)F)C4)nc3)C2)CO1 (some centres unmarked) too.
a: 7.59

q: Likewise for `O=C(c1cccc(F)c1)N1CCN(C2CN(C(=O)c3ccc4c(ccn4-c4ccc(F)cc4)c3)C2)CC1` ?
a: 7.12

q: Item: `O=C(c1ccccc1)N1CCN(C2CN(C(=O)c3cc4ccn(-c5ccc(F)cc5)c4cc3F)C2)CC1`
a: 7.40
